- System: LOX IMVI
- PROCEDURE SUMMARY: NCI tumour cell line growth inhibition, 48 h
Calls of active or inactive are those of the source. Cut-off read from the data, not from the text of the source: active = GI50 up to about 1.1 µM and inactive = higher.
PARAMETER MEASURED: GI50

INSERT INTO assay_data (molecule, assay_system, value) VALUES
  ('COc1cc(NC(C)=O)ccc1C(=O)N/N=C/c1ccco1', 'LOX IMVI', '97.5 µM (inactive)');

Fill blank: measured GI50 of the molecule CSC(=S)OC1C(CO[Si](C)(C)C(C)(C)C)OC2OC(C)(C)OC21 (stereo not drawn) is ____.
15.7 µM (inactive)

Fill blank: measured GI50 of the molecule `CCCCC#COS(=O)(=O)c1ccc(C)cc1` is ____.
> 100 µM (inactive)

Values compiled from ChEMBL document CHEMBL1201862.
